This collection of values is drawn from PubChem BioAssay (NCI).

- System: HT29 colon
- Test Method Notes: NCI tumour cell line growth inhibition, 48 h
Given measured TGI, output met if it is greater than or equal to 10 µM and not met if not.

Use these answered entries as a reference point.
Compound	Assigned Class
O=C1C(C(O)(C(F)(F)Cl)C(F)(F)Cl)CCC1C(O)(C(F)(F)Cl)C(F)(F)Cl (stereo not drawn)	met
O=C1/C(=C\c2ccc([N+](=O)[O-])cc2)Sc2scc(-c3ccc(O)c(O)c3)[n+]21	met
CC(=O)Oc1c(C)cc(-c2cc(C)c(OC(C)=O)c(C)c2)cc1C	met
CCOC(=O)Cc1c(Cc2[nH]c(C(=O)OCc3ccccc3)c(CC(=O)OCC)c2CC(=O)OCC)[nH]c(C(=O)OCc2ccccc2)c1CC(=O)OCC	met
O/N=C1\CCc2cc(-c3nc(C4CCNCC4)[nH]c3-c3ccncc3)ccc21	met

[ask] API: above_or_equal(metric=TGI, cutoff=10 µM) for item Cc1cc(Br)cc(C)c1NC(=O)C(=O)CC(=O)c1sc(-n2nc(-c3ccccc3)cc2-c2ccccc2)nc1C
[reply] met

[ask] Same question for OB([O][Hg][c]1ccccc1)[O][Hg][c]1ccccc1 please.
[reply] not met

[ask] And what about the compound Nc1nc(Cl)c(C=O)c(NCC2(CO)CC(CCc3ccccc3)C2)n1 (stereo not drawn) ?
[reply] met

[ask] Ok, now N#Cc1cccc(C2ON=C(c3ccc([N+](=O)[O-])cc3)N2C23CC4CC(CC(C4)C2)C3)c1 (stereo not drawn)
[reply] met

[ask] Please do the same for COc1cc([C@@H]2c3cc4c(cc3[C@H](OC3OC5COC(C(C)C)OC5C(O)C3O)C3COC(=O)[C@@H]32)OCO4)cc(OC)c1O (stereo partly drawn) as well.
[reply] met
